Cited source for all entries: paper PMC9133015

The molecules listed here are annotated with their % Inhibition.
- tested.system: DYRK2 (Homo sapiens)
- Construct: purchased Reaction Biology Corporation (assay service)
- Sequence (Q92630 whole entry): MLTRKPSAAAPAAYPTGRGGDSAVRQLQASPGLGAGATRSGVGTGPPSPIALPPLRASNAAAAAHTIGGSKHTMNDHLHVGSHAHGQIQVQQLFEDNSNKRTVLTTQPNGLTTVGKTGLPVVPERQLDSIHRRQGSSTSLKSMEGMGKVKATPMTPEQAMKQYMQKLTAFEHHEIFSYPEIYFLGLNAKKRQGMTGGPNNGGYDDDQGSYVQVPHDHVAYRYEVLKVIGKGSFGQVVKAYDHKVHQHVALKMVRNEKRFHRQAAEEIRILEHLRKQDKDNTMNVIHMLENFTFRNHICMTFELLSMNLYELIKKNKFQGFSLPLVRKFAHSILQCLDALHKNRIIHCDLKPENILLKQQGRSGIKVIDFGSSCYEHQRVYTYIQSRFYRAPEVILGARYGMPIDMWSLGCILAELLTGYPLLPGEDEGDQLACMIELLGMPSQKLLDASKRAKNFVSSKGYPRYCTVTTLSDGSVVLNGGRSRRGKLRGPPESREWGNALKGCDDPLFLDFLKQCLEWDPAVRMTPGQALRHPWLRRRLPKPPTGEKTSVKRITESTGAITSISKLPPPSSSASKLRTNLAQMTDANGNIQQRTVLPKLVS
- protocol: DYRKs kinase activity assay (33P-ATP, DYRKtide substrate): DYRK2
- Assay type: biochemical
- measurement.setup: DYRK2 kinase; Conc. 3.33333 µM; duplicate values
value.type: % Inhibition (%)

> print(dat)
                                   molecule         tested.system    value.type  assay.value
1  CC(C)N1CCN(Cc2ccc(Nc3ncc(F)c(-c4ccc5ncsc5c4)n3)nc2)CC1 [Compound 12]  DYRK2 (Homo sapiens)  % Inhibition        88.99
2  Cl.Fc1cnc(Nc2ccc(CN3CCNCC3)cn2)nc1-c1ccc2ncsc2c1 [Compound 18]  DYRK2 (Homo sapiens)  % Inhibition        88.49
3  Cc1nc2ccc(-c3nc(Nc4ccc(C(=O)N5CCNCC5)cn4)ncc3F)cc2s1.Cl [Compound 24]  DYRK2 (Homo sapiens)  % Inhibition        94.68
4  CCN1CCN(Cc2ccc(Nc3ncc(F)c(-c4ccc5ncsc5c4)n3)nc2)CC1 [Compound 16]  DYRK2 (Homo sapiens)  % Inhibition        73.48
